FYI, the data here is from PubChem BioAssay (NCI).

Test system: SNB-75 CNS
Assay: NCI tumour cell line growth inhibition, 48 h

molecule	TGI
CCOC(=O)c1ccc(NC(=O)O/N=C(/Cl)CCl)cc1	> 100 µM
CN1C(=O)C(CC=O)(C(C)(C)C)c2ccccc21 (stereo not drawn)	> 100 µM
COc1ccc(C(O)c2nccn2C)c(OC)c1 (stereo not drawn)	> 100 µM
O=C(Nc1cc(Cl)ccc1Cl)c1cc2cccc(Cl)c2oc1=O	> 100 µM
COc1ccc(-c2nc(SCC(=O)N/N=C/c3ccc(O)c(OC)c3)[nH]c2-c2ccc(OC)cc2)cc1	> 100 µM
O=C1/C(=C/c2ccccc2)NC(=S)N1CN1CCOCC1	> 100 µM
CC(C)(C)C(=O)OC(N)/C=C/c1ccccc1 (stereo not drawn)	> 100 µM
CC1C[C@]2(C)C(=O)Nc3ccccc3[C@@H]2Nc2ccccc21 (stereo partly drawn)	> 100 µM
NC12Oc3cc(O)cc(O)c3C1(c1ccc(Cl)cc1)c1c(O)cc(O)cc1O2 (stereo not drawn)	> 100 µM
O=C1[C@@H]2C3c4ccccc4C([C@@H]2C(=O)N1c1ccccc1)S3(=O)=O	> 100 µM
O=C(O)CCN(CCC(=O)O)c1ccc(/C=C2\SC(=S)NC2=O)cc1	> 100 µM
Nc1nc2c(ncn2Cc2ccc(CO)cc2)c(=O)[nH]1	> 100 µM
Cc1ccc(-c2cc(-c3ccc(Cl)cc3)nc(/N=C3\C(=O)N(CN4CCOCC4)c4ccc(Cl)cc43)n2)cc1	97.1 µM
COc1cccc2c1C(=O)c1c(O)c3c(c(O)c1C2=O)C[C@@](O)(C(=O)CO)C[C@@H]3OC1CC(N)C(OC)C(C)O1 (stereo partly drawn)	0.346 µM
C=CC(=O)N1CCC(C2CCNc3c(C(N)=O)c(-c4ccc(Oc5ccccc5)cc4)nn32)CC1 (stereo not drawn)	38.6 µM
Cc1c(O)c(C)c2c(C)cn(C(=O)C(C)(C)C)c2c1C	34.1 µM
CC(=O)Nc1ccc(-c2nc3ccccc3s2)cc1	90.9 µM
Cn1c(=O)c2c(no[n+]2[O-])c2ccccc21	35.9 µM
CCc1nc2ccc(N=NN(C)C)cc2[nH]1	> 100 µM
C[C@H]1NC(=O)C2CCCCN2C(=O)CN(C)C(=O)CNC(=O)C2CCCCN2C(=O)[C@@H](NC(=O)c2nc3ccccc3cc2O)[C@@H](C)NC(=O)C2CCCCN2C(=O)CN(C)C(=O)CNC(=O)[C@@H]2CCCCN2C(=O)C1NC(=O)c1nc2ccccc2cc1O (stereo partly drawn)	0.39 µM
CC(=O)O[C@H]1CCC2[C@@H]3CCC4=C(O)c5nocc5C[C@]4(C)C3CC[C@@]21C (stereo partly drawn)	> 100 µM
O=c1c2c(-c3ccccc3)onc2n(-c2ccccc2)c(=O)n1-c1ccccc1	84.2 µM
O=C1c2ccccc2C2(O)c3cc4ccccc4cc3OC12O (stereo not drawn)	> 100 µM

----------
Listed next: entries and their corresponding TGI.
Tested on: HCT-15 colon
Assay: NCI tumour cell line growth inhibition, 48 h

compound	target.desc	TGI
Oc1cc(O)c2c(c1)OC(c1ccc(O)c(O)c1)C(OC1(c3cc(O)c(O)c(O)c3)Oc3cc(O)cc(O)c3C(O)C1O)C2 (stereo not drawn)	HCT-15 colon	> 100 µM
COC(=O)C1(OC(=O)Sc2ccccc2)CCN(C)CC1	HCT-15 colon	> 63.1 µM
COc1cc(CNCCCN2C(=O)c3ccc4c5c(ccc(c35)C2=O)C(=O)N(CCCNCc2cc(OC)c(OC)c(OC)c2)C4=O)cc(OC)c1OC	HCT-15 colon	3.55 µM
CC12CC(C#N)(C#N)C(C#N)(CO1)C(=N)O2 (stereo not drawn)	HCT-15 colon	> 100 µM
CN1C(=O)C(CC=O)(C(C)(C)C)c2ccccc21 (stereo not drawn)	HCT-15 colon	> 100 µM
Cc1c(O)c(C)c2c(C)cn(C(=O)C(C)(C)C)c2c1C	HCT-15 colon	40.6 µM
O=c1[nH]cc(COCCO)c(=O)[nH]1	HCT-15 colon	> 100 µM
CCOC(=O)C1=C(N)Oc2ccc(Br)cc2C1C(C#N)C(=O)OCC (stereo not drawn)	HCT-15 colon	40.9 µM
CCSc1[nH]c(Nc2nc(-c3ccccc3)n(-c3ccccc3)n2)c(C(N)=O)c1C(N)=O	HCT-15 colon	> 10 µM
NC12Oc3cc(O)cc(O)c3C1(c1ccc(Cl)cc1)c1c(O)cc(O)cc1O2 (stereo not drawn)	HCT-15 colon	> 100 µM
C=CCc1cccc(/C=N/NC(=O)CN2CCN(Cc3ccccc3)CC2)c1O	HCT-15 colon	15.1 µM
COC1C(O)=C2C(=O)O/C(C)=C/C=C/C=C/C=C\CC(c3ccccc3)NC(=O)\C=C/C=C\C=C\C=C\[C@@]2(C)[C@@H]1O (stereo partly drawn)	HCT-15 colon	0.0834 µM
CC(=O)Nc1ccc(-c2nc3ccccc3s2)cc1	HCT-15 colon	> 100 µM
CCN1CCN=c2c3cc(OC)ccc3n3cnc4ccc1c2c43	HCT-15 colon	0.432 µM
CC(=O)OC12c3ccccc3-c3ccccc3C1C1C(=O)N(C)C(=O)C12Cl (stereo not drawn)	HCT-15 colon	> 10 µM
CC1=CC(=O)[C@@H](O)[C@]2(C)[C@H]3[C@@]4(O)OC[C@]35[C@H]([C@@H](C)[C@H]4O)[C@@H](O)C(=O)O[C@@H]5C[C@@H]12	HCT-15 colon	2.48 µM
COc1ccc(OC)c(N2C(=O)CSC2c2cc(OC)c(OC)c(OC)c2)c1 (stereo not drawn)	HCT-15 colon	> 100 µM
Nc1nc(N)c(N=Nc2ccc([As](=O)(O)O)cc2)c(=O)[nH]1	HCT-15 colon	> 100 µM
Cc1c(Cl)cccc1N1C(=O)C(Cl)=C(Cl)C1=O	HCT-15 colon	> 100 µM
O=C1NN=C2C=C(c3ccc(Cl)cc3)CC(c3cccc(Cl)c3)C12 (stereo not drawn)	HCT-15 colon	32.8 µM
CC(=O)OC1(C#N)CC2OC1C1C2N=NN1C(=O)OC(C)(C)C (stereo not drawn)	HCT-15 colon	55.9 µM
CCOC(=O)NC(=O)c1cn(CCOC(=O)NCCCCCCNC(=O)OCCn2cc(C(=O)NC(=O)OCC)c(=O)[nH]c2=O)c(=O)[nH]c1=O	HCT-15 colon	> 100 µM
Cc1cc(C)nc(NS(=O)(=O)c2ccc(NNC(=O)c3cccc4c(=O)c5ccccc5[nH]c34)cc2)n1	HCT-15 colon	> 100 µM
CCOC(=O)c1csc(NC(=O)CN2CCN(C)CC2)n1	HCT-15 colon	> 100 µM
CN1CCN(CN2C(=O)C3C4C=CC(C3C2=O)C2C(=O)N(CN3CCN(C)CC3)C(=O)C42)CC1 (stereo not drawn)	HCT-15 colon	> 100 µM
CC(C)=CCc1c(O)ccc2ccc(=O)oc12	HCT-15 colon	> 100 µM
Ic1ccc(-n2nnnc2-c2cnoc2-c2ccccc2)cc1	HCT-15 colon	> 73.6 µM
O=c1c2c(-c3ccccc3)onc2n(-c2ccccc2)c(=O)n1-c1ccccc1	HCT-15 colon	39.1 µM
O=C(NS(=O)(=O)OCC(Cl)(Cl)Cl)SCCC(F)(F)C(F)(F)C(F)(F)C(F)(F)C(F)(F)C(F)(F)F	HCT-15 colon	47.4 µM
CCOC(=O)C(=Cc1cccc(Cl)c1)C(=O)OCC	HCT-15 colon	5.27 µM
C[C@@]12CCC3C1C=C1C(=O)c4cc(O)ccc4C(=O)[C@]1(O2)[C@@]3(C)C=O	HCT-15 colon	11.5 µM
Cc1ccc(-c2nc3ccc([N+](=O)[O-])cc3[nH]2)cc1	HCT-15 colon	> 100 µM
COc1cccc2c1C(=O)c1c(O)c3c(c(O)c1C2=O)CC(O)(/C(C)=N/NC(=O)CCC(=O)N/N=C(\C)C1(O)Cc2c(O)c4c(c(O)c2C(OC2CC(N)C(O)C(C)O2)C1)C(=O)c1c(OC)cccc1C4=O)CC3OC1CC(N)C(O)C(C)O1 (stereo not drawn)	HCT-15 colon	> 50 µM
C=CC(=O)N1CCC(C2CCNc3c(C(N)=O)c(-c4ccc(Oc5ccccc5)cc4)nn32)CC1 (stereo not drawn)	HCT-15 colon	46.3 µM
O=C(CCc1cc(O)cc(O)c1)NCCc1cc(O)cc(O)c1	HCT-15 colon	> 100 µM
O=[N+]([O-])c1ccc(S(=O)(=O)N=Ic2ccccc2)cc1	HCT-15 colon	> 100 µM
CCCCCC(/C=C/C1CCC(=O)C1CC#C[Si](C)(C)C)OCc1ccccc1 (stereo not drawn)	HCT-15 colon	30.1 µM
O=[N+]([O-])c1ccc(-n2nnc(C3=NCCN3)c2-c2ccc(Cl)cc2)cc1	HCT-15 colon	> 100 µM
